# target under test: T1, recombinant cynomolgus MerTK extracellular domain (cynomolgus monkey, UniProt Q12866 21-505 (human entry))
# T1 construct: also called cynoMerTK; cyno MerTK; not shown: PolyHis tag or TEVS/Thrombin/murine IgG2a Fc tag
# T1 chain: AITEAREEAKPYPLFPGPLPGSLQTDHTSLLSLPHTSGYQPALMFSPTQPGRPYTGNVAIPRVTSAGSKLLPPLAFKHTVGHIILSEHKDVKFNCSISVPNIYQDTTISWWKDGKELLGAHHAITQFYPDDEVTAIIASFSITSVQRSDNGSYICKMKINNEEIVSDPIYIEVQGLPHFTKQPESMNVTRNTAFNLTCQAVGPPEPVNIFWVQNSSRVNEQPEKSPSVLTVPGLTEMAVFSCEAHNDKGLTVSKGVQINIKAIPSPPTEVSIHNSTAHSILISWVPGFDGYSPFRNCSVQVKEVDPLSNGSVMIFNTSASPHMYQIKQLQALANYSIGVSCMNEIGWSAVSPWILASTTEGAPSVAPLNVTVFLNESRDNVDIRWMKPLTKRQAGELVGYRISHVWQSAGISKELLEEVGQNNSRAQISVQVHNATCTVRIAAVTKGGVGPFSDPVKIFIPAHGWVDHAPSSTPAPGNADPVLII
# assay notes: SPR (Carterra LSA), antibody immobilized, MerTK ECD as analyte; estimate, fits not ideal for a 1:1 model
Recorded Kd for the following binders
Return type: number; implicit unit nM.

>  <binder>
bivalent anti-MerTK antibody MTK-16.2 (full IgG) (antibody, V domains shown) VH: QVQLVQSGSELKKPGASVKVSCKASGYTFTNHGMNWVRQAPGQGLEWMGWINTYTGEPTYADDFKGRFVFSLDTSVSTAYLQISSLKAEDTAVYYCARKGVTAARYFDYWGQGTLVTVSS VL: DIQMTQSPSSLSASVGDRVTITCRASQNVRTAVAWYQQKPGKAPKRLIYLASNRHTGVPSRFSGSGSGTEFTLTISNLQPEDFATYYCLQHWNYPLTFGGGTKLEIKR

>  <measurement>
60

$$$$

Record request: Kd value, item monovalent anti-MerTK antibody MTK-33.11 (antibody, V domains shown) VH: QVQLVQSGAEVKKPGASVKVSCKASGYTFTSYWMHWVRQAPGQGLEWIGVIDPSDNYINYNQKFQGRVTMTRDTSTSTVYMELSSLRSEDTAVYYCAREAWTRGYFDYWGQGTLVTVSS VL: DIQMTQSPSSLSASVGDRVTITCQASRSVRNTVAWYQQKPGKAPKLLIYYASNRYTGVPSRFSGSGSGTDFTFTISSLQPEDIATYYCQQDYRSPFTFGQGTKLEIK
3

Another binder to check: monovalent anti-MerTK antibody MTK-16.2 (antibody, V domains shown) VH: QVQLVQSGSELKKPGASVKVSCKASGYTFTNHGMNWVRQAPGQGLEWMGWINTYTGEPTYADDFKGRFVFSLDTSVSTAYLQISSLKAEDTAVYYCARKGVTAARYFDYWGQGTLVTVSS VL: DIQMTQSPSSLSASVGDRVTITCRASQNVRTAVAWYQQKPGKAPKRLIYLASNRHTGVPSRFSGSGSGTEFTLTISNLQPEDFATYYCLQHWNYPLTFGGGTKLEIK
60
